Hello, the source for this data is PubChem BioAssay AID1117319, in case you need it.

biological target: Virion infectivity factor (Human immunodeficiency virus type 1 group M subtype B (isolate BH10)) + Virion infectivity factor (Human immunodeficiency virus type 1 group M subtype B (isolate BRU/LAI)) + Virion infectivity factor (Human immunodeficiency virus type 1 group M subtype B (isolate PCV12)) + Virion infectivity factor (Human immunodeficiency virus type 1 group M subtype B (isolate HXB2)) + DNA dC->dU-editing enzyme APOBEC-3G (Homo sapiens) (UniProt P69720+P69721+P69722+P69723+Q9HC16); assay: HIV-1 Vif–A3G interaction blockers – biochemical, TR-FRET, GST-Vif 1-94, biotin-A3G peptide, dose response retest, primary screen (AID 1117319); details: TR-FRET GST-Vif / biotin-A3G peptide binding;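 also: Vif residues 1-94 fused to GST binding biotinylated APOBEC3G peptide 110-148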
Records with an inconclusive call do not appear.
Form field: IC50 (one value per entry).

Examples with answers:
MOLECULE	IC50
O=[N+]([O-])c1cc2ccccc2c(O)c1O	22.2 µM
C=CCn1c(SCC(=O)c2cc(C)n(C(C)COC)c2C)nc2sc(C)c(C)c2c1=O (stereo not given)	27.1 µM
O=C(CN1CCN(S(=O)(=O)c2ccc(F)cc2)CC1)c1ccc(O)c(O)c1	20.1 µM
CC1=Nc2nc(N3CCCCC3)c(C#N)c3c4c(nc(c23)N1)N(c1ccc(C(C)C)cc1)C(=O)C4	5.27 µM
Cc1ccc(C)n1/N=C1/NC(=O)CS1	0.9 µM

What value of measured IC50 is listed for "CCN1C(=O)/C(=C\c2ccc([N+](=O)[O-])s2)C(=O)NC1=S" ?
1.53 µM

What value of measured IC50 is listed for COc1ccc(O)c(C(=O)C2c3ccccc3C(=O)N2c2ccc(C)cc2)c1 (stereo not given) ?
20.4 µM

What value of measured IC50 is listed for "Cn1cccc1/C=C1\C(=O)NC(=O)N(Cc2ccccc2)C1=O" ?
11.2 µM

What value of measured IC50 is listed for "C(=C\c1ccco1)/C=N/n1cnnc1" ?
1.35 µM

What value of measured IC50 is listed for "COc1cc(N(C)C)ccc1C=c1c2ccccc2n2c1cc(-c1ccccc1)[n+]2C" ?
5.33 µM
